assayed target: JAK1 (Homo sapiens (Human), UniProt P23458)
Sequence (P23458 whole entry): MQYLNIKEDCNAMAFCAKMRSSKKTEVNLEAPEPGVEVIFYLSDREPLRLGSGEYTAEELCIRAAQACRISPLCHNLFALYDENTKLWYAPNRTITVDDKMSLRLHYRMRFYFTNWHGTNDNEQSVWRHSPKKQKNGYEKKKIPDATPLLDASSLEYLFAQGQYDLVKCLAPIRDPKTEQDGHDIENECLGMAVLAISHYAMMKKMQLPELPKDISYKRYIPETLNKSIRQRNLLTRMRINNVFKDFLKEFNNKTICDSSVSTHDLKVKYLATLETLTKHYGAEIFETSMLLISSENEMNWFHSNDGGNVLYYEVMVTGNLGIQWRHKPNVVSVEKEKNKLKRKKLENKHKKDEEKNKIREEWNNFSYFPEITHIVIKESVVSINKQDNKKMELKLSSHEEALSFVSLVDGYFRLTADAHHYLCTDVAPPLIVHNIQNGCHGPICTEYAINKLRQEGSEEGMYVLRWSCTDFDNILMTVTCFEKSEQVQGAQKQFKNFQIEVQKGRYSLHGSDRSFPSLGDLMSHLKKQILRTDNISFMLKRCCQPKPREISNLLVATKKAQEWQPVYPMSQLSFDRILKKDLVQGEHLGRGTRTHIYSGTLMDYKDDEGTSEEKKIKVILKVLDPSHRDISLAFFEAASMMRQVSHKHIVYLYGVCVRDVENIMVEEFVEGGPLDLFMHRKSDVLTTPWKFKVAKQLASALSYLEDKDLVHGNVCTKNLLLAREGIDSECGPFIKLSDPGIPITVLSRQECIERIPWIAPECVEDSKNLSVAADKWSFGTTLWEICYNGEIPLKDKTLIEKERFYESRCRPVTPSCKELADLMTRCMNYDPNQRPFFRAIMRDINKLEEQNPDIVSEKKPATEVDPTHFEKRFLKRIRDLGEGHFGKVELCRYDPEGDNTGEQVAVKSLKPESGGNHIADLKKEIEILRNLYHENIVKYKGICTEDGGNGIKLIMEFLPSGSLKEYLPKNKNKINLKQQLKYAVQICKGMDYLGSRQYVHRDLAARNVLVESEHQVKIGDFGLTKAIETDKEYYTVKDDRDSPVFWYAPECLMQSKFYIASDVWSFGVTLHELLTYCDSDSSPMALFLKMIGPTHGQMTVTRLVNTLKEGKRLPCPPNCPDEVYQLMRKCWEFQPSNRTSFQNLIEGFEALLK
method: Analysis of JAK1 activity inhibition ability (ADP-Glo Kinase Assay)
Format: biochemical
recorded conditions: JAK1 enzyme, ADP-Glo luminescence, ATP 250 uM, IRS-itide substrate, 30° C. 40 minutes; read-out: IC50
Description: Test Example 1: Analysis of JAK1 Activity Inhibition Ability of Compound of Formula 1 (ADP-Glo™ Kinase Assay) A JAK inhibition ability of a compound according to the present invention was identified as follows. A control material and a test material were prepared for each concentration, in such a way that they were diluted by means of DMSO. […]
pIC50: −log10 of the molar value.
Answer each item with its documented pIC50.

// sample COc1ccc(C(=O)N2CC=C(c3cc(NC(=O)C4CC4)nc4[nH]ccc34)C(C)C2)cn1 (stereo not shown) [Example 380] , its pIC50 was 6.70 to 7.70

Reported pIC50 ( Cc1nnnn1Cc1ccc(-c2cc(NC(=O)C3CC3)nc3[nH]cnc23)cc1 [Example 594] ) = < 6.70

Record N#CC1(CS(=O)(=O)NC2CC=C(c3cc(NC(=O)C4CC4)nc4[nH]ccc34)CC2)CC1 (stereo not shown) [Example 157] , field pIC50: > 7.70

O=C(Nc1cc(-c2ccc(NS(=O)(=O)c3ccc4c(c3)CCO4)cc2)c2cc[nH]c2n1)C1CC1 [Example 22] yielded pIC50 of 6.70 to 7.70

Form: compound = O=C(Nc1cc(-c2ccc(NS(=O)(=O)c3ccc(Cl)nc3)cc2)c2cc[nH]c2n1)C1CC1 [Example 12] ; pIC50 = > 7.70

Form: compound = Cc1cc(C(=O)N(C)CC#N)ccc1-c1cc(NC(=O)C2CC2)nc2[nH]ccc12 [Example 527] ; pIC50 = < 6.70

compound CCCS(=O)(=O)Nc1ccc(-c2cc(NC(=O)C3CC3)nc3[nH]ccc23)c(C#N)c1 [Example 145] , pIC50 observed: 6.70 to 7.70

So, O=C(Nc1cc(C2=CCN(C(=O)CC(F)(F)F)C2)c2cc[nH]c2n1)C1CC1 [Example 428] ? Its pIC50 was < 6.70

For this compound ( O=C(Nc1cc(-c2ccc(CNS(=O)(=O)c3ccc(F)c(F)c3)cc2)c2cc[nH]c2n1)C1CC1 [Example 582] ), measured pIC50 is > 7.70

pIC50 measured on N#Cc1ccc(S(=O)(=O)Nc2ccc(-c3cc(NC(=O)C4CC4)nc4[nH]ccc34)cc2)cc1 [Example 21] = 6.70 to 7.70

For this compound ( COc1ccc(C(=O)N2CC=C(c3cc(NC(=O)C4CC4)nc4[nH]ccc34)C(C)C2)cc1OC (stereo not shown) [Example 329] ), measured pIC50 is 6.70 to 7.70

Input N#CCC1(CS(=O)(=O)Nc2ccc(-c3cc(NC(=O)C4CC4)nc4[nH]ccc34)cc2F)CC1 [Example 86] . Output pIC50: > 7.70

Record N#CCCS(=O)(=O)NC1CC=C(c2cc(NC(=O)C3CC3)nc3[nH]ccc23)CC1 (stereo not shown) [Example 155] . Reported pIC50: > 7.70

According to the records, this compound N#CCC(=O)N1CC=C(c2cc(NC(=O)C3CC3)nc3[nH]ccc23)C2(CC2)C1 [Example 303] displays pIC50 of > 7.70

The reported pIC50 of the compound N#CCNC(=O)c1ccc(-c2cc(NC(=O)C3CC3)nc3[nH]ccc23)cc1 [Example 523] was > 7.70

pIC50 measured on N#Cc1ccc(C(=O)N2CC=C(c3cc(NC(=O)C4CC4)nc4[nH]ccc34)CC2)cc1 [Example 293] = 6.70 to 7.70
